- system: human recombinant PAK1-KD protein (Homo sapiens, UniProt Q13153)
- Sequence (Q13153 270-521 limits assumed): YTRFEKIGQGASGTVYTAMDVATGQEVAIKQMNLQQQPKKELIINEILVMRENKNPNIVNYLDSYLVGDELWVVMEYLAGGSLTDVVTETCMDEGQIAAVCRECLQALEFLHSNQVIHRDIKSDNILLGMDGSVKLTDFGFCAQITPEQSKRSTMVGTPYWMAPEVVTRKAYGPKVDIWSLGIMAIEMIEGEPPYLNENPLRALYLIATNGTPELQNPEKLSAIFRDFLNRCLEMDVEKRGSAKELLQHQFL
- assay_protocol: PAK1-KD (Kinase Domain) IC50 Zlyte Assay (FRET peptide substrate phosphorylation)
- test_conditions: Z'-LYTE, Biological Example 1
measurement_name: Ki (nM)

For the molecule CNc1ncc2cc(-c3ccc(-c4cccc(C)n4)cc3Cl)c(=O)n(CC3CCN(C)CC3)c2n1 , report Ki.
19.8

Please look at this molecule and report its Ki: CCNc1ncc2cc(-c3ccc(-c4cncc(C)n4)cc3Cl)c(=O)n(C[C@H]3[C@@H]4CNC[C@@H]43)c2n1
9.6

State its Ki for this molecule: CNc1ncc2cc(-c3ccc(-c4cncc(C)n4)cc3Cl)c(=O)n(CC(=O)N3CC[C@H](N)C3)c2n1
12.5

P: Cc1cccc(-c2ccc(-c3cc4cnc(NCC(F)F)nc4n(CCC4CNCCO4)c3=O)c(C)c2)n1 (racemic)
Q: CCNc1ncc2cc(-c3ccc(-c4cccc(C)n4)cc3Cl)c(=O)n(CC[C@H](O)CO)c2n1
R: CNc1ncc2cc(-c3ccc(-c4cncc(C)n4)cc3Cl)c(=O)n(CCCCN)c2n1
Put these in order: smallest Ki first, largest last. Would you mind listing the labels in the order requested?
P, Q, R
(P: 2.5 nM, Q: 7.08 nM, R: 23.2 nM)

I: CCNc1ncc2cc(-c3ccc(-c4cccc(C)n4)cc3Cl)c(=O)n(CC(=O)N3CCNCC3)c2n1
II: CNc1ncc2cc(-c3ccc(-c4csc(C5CC5)n4)cc3Cl)c(=O)n(C[C@H]3CNCCO3)c2n1
Compare I and II and name the one whose reported Ki is smaller. I would appreciate it if you answered with the label of your choice.
I

1: CCNc1ncc2cc(-c3ccc(-c4cncc(C)n4)cc3Cl)c(=O)n(CC3(O)CCNCC3)c2n1
2: CCNc1ncc2cc(-c3ccc(-c4cncc(C)n4)cc3Cl)c(=O)n(CCOC3CCNC3)c2n1 (single isomer, unassigned) [Example I-52]
// returns 1 or 2 , whichever has the lower Ki Output the label that corresponds to your choice.
2

1: CNc1ncc2cc(-c3ccc(-c4cccc(C)n4)cc3Cl)c(=O)n(C[C@@H]3CN(C)CCO3)c2n1
2: CNc1ncc2cc(-c3ccc(-c4cccc(C)n4)cc3Cl)c(=O)n(CC3CNCCS3(=O)=O)c2n1 (single isomer, unassigned) [I-197 Isomer A]
Of 1 and 2 , which shows the smaller Ki value? // respond with label for picked entry
2

* * *

- system: human recombinant PAK1-KD protein (Homo sapiens, UniProt Q13153)
- assay_protocol: PAK1-KD (Kinase Domain) IC50 Zlyte Assay (FRET peptide substrate phosphorylation)
- test_conditions: Z'-LYTE, Biological Example 1
pKi: −log10 of the molar value.
measurement_name: pKi

Please look at this compound and report its pKi: CCNc1ncc2cc(-c3ccc(-c4cncc(C)n4)cc3Cl)c(=O)n(CCN3CCN(C)CC3)c2n1
7.32

Identify measured pKi corresponding to CNc1ncc2cc(-c3ccc(-c4cccc(C)n4)cc3C)c(=O)n(CCN3CCOCC3)c2n1
7.78

Provide pKi value for the following compound: CCNc1ncc2cc(-c3ccc(-c4cncc(C)n4)cc3Cl)c(=O)n(CCN3CCNC(=O)C3)c2n1
7.28

a: Cc1cncc(-c2ccc(-c3cc4cnc(NC(C)C)nc4n(CCC4CCNC4=O)c3=O)c(Cl)c2)n1 (stereo not shown)
b: CNc1ncc2cc(-c3ccc(-c4cccc(C)n4)cc3C)c(=O)n(C[C@@H]3CNCCO3)c2n1
Choose between a and b : whose measured pKi value is numerically larger? Answer format: the label of the selected item.
b
(b: 8.30, a: 7.73)

1: CNc1ncc2cc(-c3ccc(-c4cccc(C)n4)cc3C)c(=O)n(CCOCCN)c2n1
2: CNc1ncc2cc(-c3ccc(-c4cncc(C)n4)cc3Cl)c(=O)n(CC(=O)N3CCC[C@H]3CN)c2n1
Decide: 1 or 2 , by lowest recorded pKi. Lab log: write the label of the selected item as the result.
2
(2: 7.40, 1: 8.44)

I: CNc1ncc2cc(-c3ccc(-c4ncn(C)n4)cc3Cl)c(=O)n(C[C@H]3CNCCO3)c2n1
II: CCNc1ncc2cc(-c3ccc(-c4cncc(C)n4)cc3Cl)c(=O)n(CCOC3CC(N)C3)c2n1 (stereo not shown)
III: CNc1ncc2cc(-c3ccc(-c4cncc(C)n4)cc3Cl)c(=O)n(CC(=O)N[C@@H]3CCNC3)c2n1
List by increasing pKi. Answer by naming the labels in the order asked.
I, III, II
(I: 5.36, III: 7.91, II: 8.43)
